molecular target: BRG-1 (Homo sapiens, UniProt P51532); experiment: ATPase catalytic activity assay (ADP-Glo), BRG-1; conditions: 1 h, read-out: BRG1 Max % Inhibition, ADP-Glo, 30 nM BRG-1, 400 μM ATP
Sequence (P51532 whole entry): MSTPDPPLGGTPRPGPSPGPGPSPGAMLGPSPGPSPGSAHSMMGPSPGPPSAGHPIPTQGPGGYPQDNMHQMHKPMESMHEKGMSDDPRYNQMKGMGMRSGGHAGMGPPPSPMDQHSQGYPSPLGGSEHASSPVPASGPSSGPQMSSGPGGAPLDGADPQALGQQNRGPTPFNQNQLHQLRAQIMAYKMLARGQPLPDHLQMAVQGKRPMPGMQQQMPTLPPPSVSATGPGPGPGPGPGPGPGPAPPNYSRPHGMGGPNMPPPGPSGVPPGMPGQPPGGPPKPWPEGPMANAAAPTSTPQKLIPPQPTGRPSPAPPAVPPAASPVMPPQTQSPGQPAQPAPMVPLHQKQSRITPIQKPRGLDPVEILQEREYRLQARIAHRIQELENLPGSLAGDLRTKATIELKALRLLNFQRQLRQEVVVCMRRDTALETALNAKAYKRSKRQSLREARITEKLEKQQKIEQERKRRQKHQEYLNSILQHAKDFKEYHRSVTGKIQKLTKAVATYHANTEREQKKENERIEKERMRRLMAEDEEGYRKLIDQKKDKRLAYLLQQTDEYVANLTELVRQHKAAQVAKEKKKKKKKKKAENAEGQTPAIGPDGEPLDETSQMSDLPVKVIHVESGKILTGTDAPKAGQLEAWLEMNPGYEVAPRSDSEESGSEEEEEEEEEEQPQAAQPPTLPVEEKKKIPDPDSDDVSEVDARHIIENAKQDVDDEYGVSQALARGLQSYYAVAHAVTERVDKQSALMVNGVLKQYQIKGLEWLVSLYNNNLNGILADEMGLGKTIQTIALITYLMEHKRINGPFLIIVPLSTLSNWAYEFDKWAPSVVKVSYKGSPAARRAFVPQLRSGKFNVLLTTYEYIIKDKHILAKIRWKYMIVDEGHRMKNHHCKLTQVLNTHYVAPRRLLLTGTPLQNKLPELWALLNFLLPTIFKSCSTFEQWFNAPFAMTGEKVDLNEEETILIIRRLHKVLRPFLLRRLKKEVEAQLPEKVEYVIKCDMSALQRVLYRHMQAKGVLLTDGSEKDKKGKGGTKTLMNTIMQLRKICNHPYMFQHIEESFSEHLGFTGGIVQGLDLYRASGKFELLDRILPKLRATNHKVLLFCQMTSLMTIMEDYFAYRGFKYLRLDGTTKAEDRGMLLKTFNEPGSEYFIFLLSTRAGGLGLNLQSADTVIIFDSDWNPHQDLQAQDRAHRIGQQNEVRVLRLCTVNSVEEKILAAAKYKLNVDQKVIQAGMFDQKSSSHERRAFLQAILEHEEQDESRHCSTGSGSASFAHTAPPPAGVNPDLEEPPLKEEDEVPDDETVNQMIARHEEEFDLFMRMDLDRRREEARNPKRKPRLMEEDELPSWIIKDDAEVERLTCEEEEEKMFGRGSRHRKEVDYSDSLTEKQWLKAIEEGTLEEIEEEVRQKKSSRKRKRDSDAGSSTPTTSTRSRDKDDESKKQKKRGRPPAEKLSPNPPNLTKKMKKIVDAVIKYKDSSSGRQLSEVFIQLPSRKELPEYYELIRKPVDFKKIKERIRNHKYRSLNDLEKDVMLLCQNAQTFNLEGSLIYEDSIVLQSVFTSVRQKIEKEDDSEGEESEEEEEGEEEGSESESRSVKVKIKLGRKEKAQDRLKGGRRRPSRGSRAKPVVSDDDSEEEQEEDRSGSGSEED
recorded.endpoint: Emax (%)
Expressed in %, but write only the number.

{"columns": ["molecule", "recorded.endpoint", "reported.value"],
 "data": [
  ["C[C@@]1(C#N)COCc2ccc(C(=O)NCc3cc4nn(-c5ccccc5)cc4cn3)cc21 [Compound 524]", "Emax", 50]
]}

Req: I would be grateful if you could share the reported Emax for COCCNC(=O)c1cccc(-c2ccc3cnc(CNC(=O)c4ccc5c(c4)[C@](C)(C#N)COC5)cc3n2)c1 [Compound 468] .
Resp: 80

Req: I would be grateful if you could share the reported Emax for CN1Cc2nc(-c3ccc4cnc(CNC(=O)c5ccc6c(c5)[C@](C)(C#N)COC6)cc4n3)ccc2C1=O [Compound 427] .
Resp: 87

Req: I would be grateful if you could share the reported Emax for CC(F)(F)c1cncc(-c2ccc3cnc(CNC(=O)c4ccc5c(c4)[C@](C)(C#N)COC5)cc3n2)n1 [Compound 299] .
Resp: 78

Req: I would be grateful if you could share the reported Emax for C[C@@]1(C#N)COCc2ccc(C(=O)NCc3cc(C4CCN(c5ccccc5)C4)ccn3)cc21 (some centres unmarked) [Compound 62] .
Resp: 42

Req: I would be grateful if you could share the reported Emax for C[C@@]1(C#N)COCc2ccc(C(=O)NCc3cc4c(cn3)CCN(c3cncc(N5CCC5)n3)C4)cc21 [Compound 298] .
Resp: 82

----------
biological target: BRG-1 (Homo sapiens); test: ATPase catalytic activity assay (ADP-Glo), BRG-1; settings: read-out: BRG1 ATPase: IC50; ADP-Glo, 30 nM BRG-1, 400 μM ATP
pIC50: −log10 of the molar value.
recorded.endpoint: pIC50

Req: Checklist item: pIC50 tested on BRG-1 (Homo sapiens), entry `C[C@@]1(C#N)COCc2ccc(C(=O)NCc3cc4nc(-c5ccccc5)ccc4cn3)cc21` , value?
Resp: < 6.00

----------
target: BRM (Homo sapiens, UniProt P51531); test: ATPase catalytic activity assay (ADP-Glo), BRM; settings: BRM ATPase: IC50 (uM), 30 nM BRM, 400 μM ATP
Sequence (P51531 whole entry): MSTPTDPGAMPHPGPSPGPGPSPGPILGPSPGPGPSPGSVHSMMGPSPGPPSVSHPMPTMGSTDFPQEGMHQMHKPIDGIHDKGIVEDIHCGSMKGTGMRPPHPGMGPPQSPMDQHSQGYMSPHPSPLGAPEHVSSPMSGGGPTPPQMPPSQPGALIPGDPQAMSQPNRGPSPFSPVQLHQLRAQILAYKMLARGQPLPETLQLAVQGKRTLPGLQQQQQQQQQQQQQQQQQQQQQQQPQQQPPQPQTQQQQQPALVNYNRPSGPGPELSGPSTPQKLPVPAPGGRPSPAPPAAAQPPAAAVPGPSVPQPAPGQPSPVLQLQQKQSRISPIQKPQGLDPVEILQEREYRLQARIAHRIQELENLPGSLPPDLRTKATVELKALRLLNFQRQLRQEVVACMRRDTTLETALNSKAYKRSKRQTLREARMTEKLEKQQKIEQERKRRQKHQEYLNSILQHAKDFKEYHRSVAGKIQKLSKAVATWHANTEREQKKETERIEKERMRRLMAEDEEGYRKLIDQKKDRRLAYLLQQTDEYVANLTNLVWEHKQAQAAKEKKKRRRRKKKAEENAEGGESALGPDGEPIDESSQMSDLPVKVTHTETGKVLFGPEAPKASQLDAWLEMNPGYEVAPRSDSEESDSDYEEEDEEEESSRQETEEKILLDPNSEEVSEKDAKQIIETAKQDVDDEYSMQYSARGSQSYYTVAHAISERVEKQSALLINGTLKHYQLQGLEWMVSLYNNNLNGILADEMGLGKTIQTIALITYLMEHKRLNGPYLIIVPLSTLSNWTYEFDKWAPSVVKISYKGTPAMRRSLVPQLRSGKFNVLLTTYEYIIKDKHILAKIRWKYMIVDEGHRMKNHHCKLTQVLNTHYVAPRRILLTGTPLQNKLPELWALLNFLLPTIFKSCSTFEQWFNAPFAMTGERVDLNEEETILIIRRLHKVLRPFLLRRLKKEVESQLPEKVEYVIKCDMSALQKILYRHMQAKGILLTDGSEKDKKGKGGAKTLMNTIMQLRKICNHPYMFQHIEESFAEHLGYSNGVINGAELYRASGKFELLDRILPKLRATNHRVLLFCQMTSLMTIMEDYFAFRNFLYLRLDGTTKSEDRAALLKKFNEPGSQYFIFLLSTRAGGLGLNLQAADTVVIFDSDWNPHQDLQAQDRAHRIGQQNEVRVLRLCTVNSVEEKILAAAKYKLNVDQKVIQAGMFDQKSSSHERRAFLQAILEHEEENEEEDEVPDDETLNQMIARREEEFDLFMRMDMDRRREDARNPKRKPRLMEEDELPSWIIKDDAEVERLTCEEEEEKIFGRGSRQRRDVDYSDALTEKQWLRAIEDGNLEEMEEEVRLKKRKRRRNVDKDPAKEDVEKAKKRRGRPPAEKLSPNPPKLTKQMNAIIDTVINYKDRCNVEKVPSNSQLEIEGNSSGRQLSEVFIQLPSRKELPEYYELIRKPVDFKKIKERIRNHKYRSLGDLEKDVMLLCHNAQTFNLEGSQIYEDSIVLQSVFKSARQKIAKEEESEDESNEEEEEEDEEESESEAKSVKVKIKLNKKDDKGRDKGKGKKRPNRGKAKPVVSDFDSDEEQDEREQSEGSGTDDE
# IC50 per record follows

Reference set, count: 6
{"columns": ["molecule", "IC50"],
 "data": [
  ["COCCn1cc(-c2ccc3cnc(CNC(=O)c4ccc5c(c4)[C@](C)(C#N)COC5)cc3n2)c(OC)n1 [Compound 203]", "0.1 to 0.5 µM"],
  ["COc1ccc(C)cc1-c1ccc2cnc(CNC(=O)c3ccc4c(c3)[C@](C)(C#N)COC4)cc2n1 [Compound 153]", "0.1 to 0.5 µM"],
  ["C[C@@]1(C#N)COCc2ccc(C(=O)NCc3cc(OCc4cccc(C#N)c4)ccn3)cc21 [Compound 65]", "0.1 to 0.5 µM"],
  ["COc1nn([C@H]2C[C@H](F)C2)cc1-c1ccc2cnc(CNC(=O)c3ccc4c(c3)[C@](C)(C#N)COC4)cc2n1 [Compound 185]", "< 0.1 µM"],
  ["C[C@@]1(C#N)COCc2ccc(C(=O)NCc3cc(N4CCc5ccccc5C4)cnn3)cc21 [Compound 75]", "0.1 to 0.5 µM"],
  ["C[C@@]1(C#N)COCc2ccc(C(=O)NCc3cc4nc(N5Cc6ccccc6C5=O)ccc4cn3)cc21 [Compound 303]", "0.1 to 0.5 µM"]
]}

Below: the item to evaluate.
Req: I would be grateful if you could share the reported IC50 for C[C@@]1(CO)COCc2ccc(C(=O)NCc3cc4nc(-c5ccccc5)ccc4cn3)cc21 [Compound 109] .
Resp: > 1 µM
